# TEST: AUC (infinity) in Sprague-Dawley rat at 3 mg/kg, po
# Type: ADME, organism-based
# Parameters: dose 3 mg/kg, time infinity, route oral
# PARTICULARS: in vivo

{"SMILES_RECORD": "C[C@@H]1CN(c2cc(F)c3c(c2)N(C)C(=O)C32CCN(c3nc4c(c(=O)[nH]3)CCCN4C)CC2)C[C@H](C)O1", "UNIT_SPEC": "µM·h", "AUC(0-inf)": 33}

---

# TEST: AUC (infinity) in ICR mouse at 20 mg/kg, po
# Format: ADME, organism-based
# Set-up: dose 20 mg/kg, time infinity, route oral
# PARTICULARS: in vivo

{"SMILES_RECORD": "C[C@@H]1CN(c2cc(F)c3c(c2)N(C)C(=O)C32CCN(c3nc4c(c(=O)[nH]3)CCCN4C)CC2)C[C@H](C)O1", "UNIT_SPEC": "µM·h", "AUC(0-inf)": 326}

---

# SYSTEM_NAME: Cytochrome P450 3A4 (Homo sapiens, UniProt P08684)
# Sequence (P08684 whole entry): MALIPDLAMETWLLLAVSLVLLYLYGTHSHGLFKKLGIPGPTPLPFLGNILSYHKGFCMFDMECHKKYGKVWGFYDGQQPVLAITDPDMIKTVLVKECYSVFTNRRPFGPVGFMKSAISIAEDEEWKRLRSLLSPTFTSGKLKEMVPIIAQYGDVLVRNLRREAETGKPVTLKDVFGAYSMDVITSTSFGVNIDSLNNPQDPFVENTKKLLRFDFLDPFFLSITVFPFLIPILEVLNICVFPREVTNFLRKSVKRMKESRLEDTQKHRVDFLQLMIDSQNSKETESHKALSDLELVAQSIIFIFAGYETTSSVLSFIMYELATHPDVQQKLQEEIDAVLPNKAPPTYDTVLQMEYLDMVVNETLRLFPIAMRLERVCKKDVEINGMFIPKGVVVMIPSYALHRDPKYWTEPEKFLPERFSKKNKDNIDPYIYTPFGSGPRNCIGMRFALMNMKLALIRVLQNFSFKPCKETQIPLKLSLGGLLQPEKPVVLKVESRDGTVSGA

{"SMILES_RECORD": "C[C@@H]1CN(c2cc(F)c3c(c2)N(C)C(=O)C32CCN(c3nc4c(c(=O)[nH]3)CCCN4C)CC2)C[C@H](C)O1", "IC50": "> 10 µM"}

---

# SYSTEM_NAME: Poly [ADP-ribose] polymerase tankyrase-1 (Homo sapiens)
# Sequence (O95271 whole entry): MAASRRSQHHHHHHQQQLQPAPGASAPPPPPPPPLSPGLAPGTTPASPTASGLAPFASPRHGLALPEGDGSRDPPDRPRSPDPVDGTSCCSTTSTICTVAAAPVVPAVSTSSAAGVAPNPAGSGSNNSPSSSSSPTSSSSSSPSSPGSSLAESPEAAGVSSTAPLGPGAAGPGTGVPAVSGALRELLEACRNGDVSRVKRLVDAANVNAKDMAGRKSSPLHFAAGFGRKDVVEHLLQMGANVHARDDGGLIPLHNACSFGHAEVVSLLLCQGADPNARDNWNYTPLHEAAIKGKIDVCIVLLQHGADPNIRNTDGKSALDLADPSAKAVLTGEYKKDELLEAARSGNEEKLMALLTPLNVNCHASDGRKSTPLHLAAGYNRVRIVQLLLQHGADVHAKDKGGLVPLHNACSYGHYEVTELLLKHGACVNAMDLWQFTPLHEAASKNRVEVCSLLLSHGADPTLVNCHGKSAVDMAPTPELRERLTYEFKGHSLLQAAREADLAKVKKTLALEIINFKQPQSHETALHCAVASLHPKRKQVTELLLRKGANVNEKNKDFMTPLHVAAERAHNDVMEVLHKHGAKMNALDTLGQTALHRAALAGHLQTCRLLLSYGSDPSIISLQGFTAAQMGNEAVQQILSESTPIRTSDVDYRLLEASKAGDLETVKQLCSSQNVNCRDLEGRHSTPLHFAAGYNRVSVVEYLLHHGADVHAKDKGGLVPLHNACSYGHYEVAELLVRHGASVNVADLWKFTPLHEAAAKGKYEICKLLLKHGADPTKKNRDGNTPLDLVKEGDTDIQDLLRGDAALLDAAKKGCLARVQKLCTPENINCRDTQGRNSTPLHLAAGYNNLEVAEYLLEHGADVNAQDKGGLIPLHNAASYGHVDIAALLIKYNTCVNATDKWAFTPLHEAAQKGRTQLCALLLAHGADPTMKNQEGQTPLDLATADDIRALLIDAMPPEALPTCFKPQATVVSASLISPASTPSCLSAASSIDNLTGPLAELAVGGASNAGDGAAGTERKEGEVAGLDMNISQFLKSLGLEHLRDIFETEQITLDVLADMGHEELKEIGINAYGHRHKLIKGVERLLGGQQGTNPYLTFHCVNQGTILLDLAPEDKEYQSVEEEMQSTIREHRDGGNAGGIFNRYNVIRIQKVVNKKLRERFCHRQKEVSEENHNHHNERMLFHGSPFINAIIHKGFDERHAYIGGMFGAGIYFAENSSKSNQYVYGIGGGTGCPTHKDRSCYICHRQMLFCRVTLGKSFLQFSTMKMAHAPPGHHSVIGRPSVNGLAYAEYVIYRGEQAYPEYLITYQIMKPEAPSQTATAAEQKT
pIC50: −log10 of the molar value.
Listed next: entries and their corresponding pIC50.

{"SMILES_RECORD": "COCCN1C(=O)C2(CCN(c3nc4c(c(=O)[nH]3)CCCN4C)CC2)c2c(F)cc(F)cc21", "pIC50": 7.99}
{"SMILES_RECORD": "CN1CCCc2c1nc(N1CCC3(CC1)C(=O)N(C)c1cc(OCCN4CCCCC4)cc(F)c13)[nH]c2=O", "pIC50": 7.92}
{"SMILES_RECORD": "Cn1ccc2c(=O)[nH]c(N3CCC4(CC3)C(=O)N(CCO)c3cc(F)cc(F)c34)nc21", "pIC50": 8.35}
{"SMILES_RECORD": "O=C1N(CCO)c2cc(F)cc(F)c2C12CCN(c1nc3c(c(=O)[nH]1)CCCC3)CC2", "pIC50": 7.83}
{"SMILES_RECORD": "CN1CCc2c1nc(N1CCC3(CC1)C(=O)N(CCO)c1cc(F)cc(F)c13)[nH]c2=O", "pIC50": 7.85}
{"SMILES_RECORD": "C[C@@H]1CN(c2cc(F)c3c(c2)N(C)C(=O)C32CCN(c3nc4c(c(=O)[nH]3)CCCN4C)CC2)C[C@H](C)N1", "pIC50": 7.95}
{"SMILES_RECORD": "CN1CCc2c1nc(N1CCC3(CC1)CN(CCO)c1cc(F)cc(F)c13)[nH]c2=O", "pIC50": 7.27}
{"SMILES_RECORD": "CN1CCCc2c1nc(N1CCC3(CC1)C(=O)N(CS(C)(=O)=O)c1cc(F)cc(F)c13)[nH]c2=O", "pIC50": 8.37}
{"SMILES_RECORD": "CN1CCN(c2cc(F)c3c(c2)N(C)C(=O)C32CCN(c3nc4c(c(=O)[nH]3)CCCN4C)CC2)CC1", "pIC50": 8.11}
